Reference source for all entries: patent US20220339270A1

molecular target: T1, extracellular tau in the form of paired helical filaments (ePHF tau) (UniProt P10636-8 1-441, limits assumed); experiment: ePHF tau ELISA, ePHF coated; antibody at 6.2 ng/ml; anti-mouse-HRP
T1 construct: Aggregated, hyperphosphorylated tau preparation; not a single defined polypeptide
T1 sequence (P10636 other isoform, or with tags, fused parts or gaps limits assumed): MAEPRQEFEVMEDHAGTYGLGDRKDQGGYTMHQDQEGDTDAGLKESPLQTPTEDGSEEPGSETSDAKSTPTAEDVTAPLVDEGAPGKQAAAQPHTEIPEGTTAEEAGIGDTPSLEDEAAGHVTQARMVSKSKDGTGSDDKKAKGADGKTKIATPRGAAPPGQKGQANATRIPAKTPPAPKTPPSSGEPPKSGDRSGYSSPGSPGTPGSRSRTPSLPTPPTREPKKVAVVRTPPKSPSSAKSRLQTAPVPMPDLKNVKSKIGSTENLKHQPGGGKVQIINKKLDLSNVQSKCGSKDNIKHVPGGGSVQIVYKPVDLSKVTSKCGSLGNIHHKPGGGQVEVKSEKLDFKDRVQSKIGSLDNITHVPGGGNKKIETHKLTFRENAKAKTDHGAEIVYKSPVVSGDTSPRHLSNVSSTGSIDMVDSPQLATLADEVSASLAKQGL
outcome-measure: OD450 (OD450)

1. anti-tau antibody MC1 expressed from viral genome construct MC1LF2AH (TAU_ITR79; SEQ ID NO: 2068) (antibody, V domains shown) VH: QVQLQQSGAELMKPGASVKISCKATGYTFSNYWIEWVKQRPGHGLEWIGEILPGSDSIKYNENFKGKATFTADTSSNTAYMQLSSLTSEDSAVYYCARRGNYPDYWGQGTTLTVSS VL: DVVMTQTPLSLPVSLGDQASISCRSSQSLVHSNGNTYLHWYLQKPGQSPKLLIYKVSNRFSGVPDRFSGSGSGTDFTLKISRVEAEDLGVYFCSQSTHVPLTFGAGTKLELKR : 0.1
2. anti-tau antibody MC1 expressed from viral genome construct MC1LF.F2AH (TAU_ITR78; SEQ ID NO: 2067) (antibody, V domains shown) VH: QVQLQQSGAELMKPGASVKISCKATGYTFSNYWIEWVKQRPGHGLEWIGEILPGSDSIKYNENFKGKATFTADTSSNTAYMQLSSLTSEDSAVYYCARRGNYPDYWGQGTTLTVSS VL: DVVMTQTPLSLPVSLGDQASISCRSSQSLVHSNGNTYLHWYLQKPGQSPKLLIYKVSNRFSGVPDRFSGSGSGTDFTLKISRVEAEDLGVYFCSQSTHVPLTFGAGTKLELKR : 0.1
